Biological target: D(2) dopamine receptor (Homo sapiens, UniProt P14416)
Sequence (P14416 whole entry): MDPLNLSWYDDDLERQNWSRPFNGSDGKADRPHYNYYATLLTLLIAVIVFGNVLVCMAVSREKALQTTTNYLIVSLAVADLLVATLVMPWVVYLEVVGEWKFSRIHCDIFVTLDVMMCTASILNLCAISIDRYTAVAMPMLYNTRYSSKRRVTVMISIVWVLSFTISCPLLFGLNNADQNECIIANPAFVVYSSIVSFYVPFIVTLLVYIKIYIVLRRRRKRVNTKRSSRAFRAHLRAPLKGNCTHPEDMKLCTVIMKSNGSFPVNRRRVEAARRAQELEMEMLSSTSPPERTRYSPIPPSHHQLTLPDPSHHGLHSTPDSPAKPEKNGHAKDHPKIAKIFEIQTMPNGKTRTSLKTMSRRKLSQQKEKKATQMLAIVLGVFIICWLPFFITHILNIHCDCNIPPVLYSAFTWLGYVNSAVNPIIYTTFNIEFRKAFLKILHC
Experiment: Binding affinity against human Dopamine receptor D2 in mouse LtK- cells using [3H]spiperone.
ENDPOINT NAME: Ki (nM)
Answers are plain numbers, in nM.

Recorded Ki, per entry:
>  <COMPOUND>
CCCN(CCC)[C@@H]1CCc2c(OC)cccc2[C@@H]1C

>  <UNIT NAME>
nM

>  <Ki>
63.1

$$$$
>  <COMPOUND>
CCCN(CCC)C1CCc2cc(CCc3ccccc3)ccc2C1 (stereo not drawn)

>  <UNIT NAME>
nM

>  <Ki>
398

$$$$

Let's switch to this compound now.
(Q) Which Ki is reported for this compound? CCCN(CCC)C1CCc2cc(CCc3ccc(/C(C)=N\O)cc3)ccc2C1 (stereo not drawn)
(A) 794

Origin of values: ChEMBL document CHEMBL1129777
